TGT: MST1 (Homo sapiens, UniProt Q13043)
Sequence (Q13043 1-487): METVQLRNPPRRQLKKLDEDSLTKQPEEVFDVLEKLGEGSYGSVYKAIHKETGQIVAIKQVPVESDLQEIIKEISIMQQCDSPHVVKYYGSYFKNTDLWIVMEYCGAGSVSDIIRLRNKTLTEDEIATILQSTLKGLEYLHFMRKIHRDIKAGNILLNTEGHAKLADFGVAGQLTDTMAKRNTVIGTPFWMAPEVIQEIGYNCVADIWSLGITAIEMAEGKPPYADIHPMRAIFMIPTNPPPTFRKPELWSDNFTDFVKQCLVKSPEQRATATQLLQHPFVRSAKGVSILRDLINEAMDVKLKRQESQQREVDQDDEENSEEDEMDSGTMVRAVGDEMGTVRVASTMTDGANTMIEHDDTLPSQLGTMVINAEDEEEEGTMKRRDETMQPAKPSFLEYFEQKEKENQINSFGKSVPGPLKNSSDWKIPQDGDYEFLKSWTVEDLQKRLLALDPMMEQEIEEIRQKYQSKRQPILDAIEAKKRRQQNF
EXPERIMENTAL DETAILS: In vitro measurement of MST1 inhibition (Z′-Lyte kinase assay)
Type: biochemical
MEASUREMENT CONTEXT: 50 μM ATP; read-out: IC50 (μM) 50 μM ATP

{"columns": ["COMPOUND", "IC50"],
 "data": [
  ["NC(=O)c1ccc(-c2cc(-c3ccc(-n4ccnc4)cc3)cnc2N)cc1", "< 0.15 µM"],
  ["[2H]C([2H])([2H])N(C1CC1)S(=O)(=O)c1ccc(-c2cnc(N)c(-c3ccc4c(c3)CCNC4=O)n2)cc1", "< 0.01 µM"],
  ["CCN(C)S(=O)(=O)c1ccc(-c2cnc(N)c(-c3ccc4c(c3)CCNC4=O)n2)cc1Cl", "< 0.01 µM"],
  ["NCC1CCC(NC(=O)c2nc(-c3ccc(S(=O)(=O)NC4CC4)cc3)cnc2N)CC1 (stereo not drawn)", "< 0.01 µM"],
  ["Nc1ncc(-c2ccc3c(c2)CNS3(=O)=O)cc1-c1ccc2c(c1)CCNC2=O", "< 0.01 µM"],
  ["COCc1ccc(-c2cnc(N)c(C(=O)NC3CCCCC3)n2)cc1", "< 0.15 µM"],
  ["CN(C1CC1)S(=O)(=O)c1ccc(-c2cnc(N)c(-c3ccc4c(=O)[nH]ccc4c3)n2)cc1", "< 0.01 µM"],
  ["N#CC1(c2ccc(-c3cnc(N)c(-c4ccc5c(c4)NCCNC5=O)n3)cc2)CCOCC1", "< 0.01 µM"],
  ["N#CC1(c2ccc(-c3cnc(N)c(-c4ccc5c(c4)C4(CC4)CNC5=O)c3)cc2)CCOCC1", "< 0.01 µM"]
]}

====

TGT: MST1 (Homo sapiens, UniProt Q13043)
EXPERIMENTAL DETAILS: In vitro measurement of MST1 inhibition (Z′-Lyte kinase assay)
Assay type: biochemical
MEASUREMENT CONTEXT: 1 μM ATP; read-out: IC50 (μM) 1 μM ATP
REPORTED METRIC: IC50

{"columns": ["MOL", "TGT", "REPORTED METRIC", "MEASURED RESULT"],
 "data": [
  ["Cc1cc(-c2cnc(N)c(-c3ccc4c(c3)C3(CC3)CNC4=O)n2)ccc1S(=O)(=O)NC1CC1", "MST1 (Homo sapiens, UniProt Q13043)", "IC50", "< 0.01 µM"],
  ["N#CC1(c2ccc(-c3cc(-c4ccc5c(c4)CCNC5=O)c(N)nn3)cc2)CC1", "MST1 (Homo sapiens, UniProt Q13043)", "IC50", "< 0.15 µM"],
  ["CC(C)(C#N)c1ccc(-c2cnc(N)c(-c3ccc4c(c3)CCNC4=O)n2)cc1", "MST1 (Homo sapiens, UniProt Q13043)", "IC50", "< 0.05 µM"],
  ["N#Cc1ccc(-c2cnc(N)c(-c3ccc4c(c3)CCNC4=O)n2)cc1", "MST1 (Homo sapiens, UniProt Q13043)", "IC50", "< 0.05 µM"],
  ["N#Cc1ccc(-c2cnc(N)c(-c3cc4c(cn3)C(=O)NCC4)c2)cc1", "MST1 (Homo sapiens, UniProt Q13043)", "IC50", "< 0.05 µM"],
  ["Nc1ncc(-c2ccc(S(=O)(=O)CC3CC3)cc2)nc1-c1ccc2c(c1)CCNC2=O", "MST1 (Homo sapiens, UniProt Q13043)", "IC50", "< 0.05 µM"],
  ["N#CC1(c2ccc(-c3cnc(N)c(-c4ccc5c(c4)CCNC5=O)n3)cc2)CCOCC1", "MST1 (Homo sapiens, UniProt Q13043)", "IC50", "< 0.05 µM"],
  ["CC(C)(Oc1ccc(-c2cnc(N)c(-c3ccc4c(c3)CCNC4=O)n2)cc1)C(N)=O", "MST1 (Homo sapiens, UniProt Q13043)", "IC50", "< 0.05 µM"],
  ["N#CC1(c2ccc(-c3cnc(N)c(-c4ccc5c(=O)[nH]ccc5c4)n3)cc2)CC1", "MST1 (Homo sapiens, UniProt Q13043)", "IC50", "< 0.05 µM"]
]}
